Where these numbers come from: ChEMBL document CHEMBL5223106

experimental_details: Efflux ratio of permeability across basolateral to apical side over apical to basolateral side in human Caco-2 cells
Assay type: ADME, cell-based
observation_type: efflux ratio

Given CC(C)(C)c1cc(NC(=O)c2ccc(S(=O)(=O)N3CCCC3)cc2)n[nH]1 , state its recorded efflux ratio.
1

* * *

tgt: Serine/threonine-protein kinase 25 (Homo sapiens)
Sequence (O00506 whole entry, looked up): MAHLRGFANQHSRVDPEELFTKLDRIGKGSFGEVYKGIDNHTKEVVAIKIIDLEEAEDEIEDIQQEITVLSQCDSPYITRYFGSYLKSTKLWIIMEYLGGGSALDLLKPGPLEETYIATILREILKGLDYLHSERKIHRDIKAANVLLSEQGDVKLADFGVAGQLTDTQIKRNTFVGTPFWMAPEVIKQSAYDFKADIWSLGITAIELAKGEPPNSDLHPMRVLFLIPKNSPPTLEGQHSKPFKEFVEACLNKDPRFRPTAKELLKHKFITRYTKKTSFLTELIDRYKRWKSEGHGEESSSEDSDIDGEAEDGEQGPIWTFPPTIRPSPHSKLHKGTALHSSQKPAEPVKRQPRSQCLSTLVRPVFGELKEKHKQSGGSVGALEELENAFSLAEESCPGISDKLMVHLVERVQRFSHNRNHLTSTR
experimental_details: Inhibition of STK25 (unknown origin) by FRET assay
The source made the active and inactive calls. No cut-off for these calls is given here.
observation_type: inhibition

• CC(C)(C)c1cc(NC(=O)c2nnn3c2CO[C@H](c2ccccc2)C3)n[nH]1 = inactive
• CC(C)(C)c1cc(NC(=O)c2nnn3c2CO[C@@H](Cc2ccccc2)C3)n[nH]1 = inactive
• CC(C)(C)c1cc(NC(=O)c2nnn3c2CO[C@H](Cc2ccccc2)C3)n[nH]1 = inactive
• CC(C)(C)c1cc(NC(=O)c2nnn3c2CO[C@@H](c2ccccc2)C3)n[nH]1 = inactive
